Molecular target: T1, hCEACAM5, human CEACAM5 ECD (35-685) (human, UniProt P06731 35-685)
T1 construct: produced in HEK293; also called human CEACAM5 protein; human CEACAM5 extracellular domain
T1 sequence: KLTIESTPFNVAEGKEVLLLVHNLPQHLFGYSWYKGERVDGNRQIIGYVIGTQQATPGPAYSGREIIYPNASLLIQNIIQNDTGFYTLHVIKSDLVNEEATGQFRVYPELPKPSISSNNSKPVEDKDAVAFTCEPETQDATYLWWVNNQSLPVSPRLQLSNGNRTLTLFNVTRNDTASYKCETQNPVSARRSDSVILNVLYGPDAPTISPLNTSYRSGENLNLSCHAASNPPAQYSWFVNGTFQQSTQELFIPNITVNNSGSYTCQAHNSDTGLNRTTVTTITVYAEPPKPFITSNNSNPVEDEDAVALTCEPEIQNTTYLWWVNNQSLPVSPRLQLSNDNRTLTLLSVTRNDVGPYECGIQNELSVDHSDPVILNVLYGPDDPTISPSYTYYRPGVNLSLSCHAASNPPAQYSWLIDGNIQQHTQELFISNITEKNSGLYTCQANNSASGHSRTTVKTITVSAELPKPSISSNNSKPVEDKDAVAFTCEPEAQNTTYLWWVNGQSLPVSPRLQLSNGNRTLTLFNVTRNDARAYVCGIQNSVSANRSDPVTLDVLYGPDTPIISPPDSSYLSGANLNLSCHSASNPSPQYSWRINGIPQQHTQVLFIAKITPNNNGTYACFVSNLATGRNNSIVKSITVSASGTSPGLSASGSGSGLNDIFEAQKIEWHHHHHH
Assay: ELISA
property-measured: pEC50
// scale note: pEC50 = -log10(conc_M); give the bare number

The binder identified as chMAb2 (antibody, human IgG1, kappa, V domains shown, Chimeric, human IgG1, Ck isotype; also called MAb2-IgG1; chimeric MAb2) VH: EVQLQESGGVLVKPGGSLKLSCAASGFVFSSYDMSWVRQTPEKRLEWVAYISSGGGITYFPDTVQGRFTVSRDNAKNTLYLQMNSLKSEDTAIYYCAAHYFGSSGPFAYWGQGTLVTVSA VL: DIQMTQSPASLSASVGETVTITCRASENIFSYLAWYQQKQGKSPQLLVYNTKTLAEGVPSRFSGSGSGTQFSLKINSLQPEDFGSYYCQHHYGTPFTFGSGTKLEIKR registered its pEC50 at 9.80
